Values from the supplement of paper PMC11732987

Measurement Target: USP46 (UniProt P62068)
Sequence (P62068 whole entry, the tested form may be a part): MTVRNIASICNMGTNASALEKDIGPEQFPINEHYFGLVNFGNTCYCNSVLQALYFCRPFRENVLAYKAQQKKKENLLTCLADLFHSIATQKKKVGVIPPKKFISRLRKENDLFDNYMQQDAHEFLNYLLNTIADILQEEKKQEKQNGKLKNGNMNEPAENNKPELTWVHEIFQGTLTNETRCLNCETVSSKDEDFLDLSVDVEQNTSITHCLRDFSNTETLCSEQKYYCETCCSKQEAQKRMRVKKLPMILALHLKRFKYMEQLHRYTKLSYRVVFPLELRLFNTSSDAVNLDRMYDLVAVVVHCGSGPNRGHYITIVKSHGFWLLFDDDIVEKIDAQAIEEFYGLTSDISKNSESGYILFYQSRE
Method: log2 ratio of Biotin-Ahx-Ub-VS probe labelling (fragment/DMSO); higher = less target engagement (more negative = stronger competition), active = hit call of the paper (q ≤ 0.05, log2 ratio ≤ -1)
Particulars: compound concentration: 200 uM; treatment time: 3 h
Please go through the items and note down their log2 ratio of Biotin-Ahx-Ub-VS probe labelling.
The reply should be a number, written without any unit.

Enquiry: Provide log2 ratio of Biotin-Ahx-Ub-VS probe labelling value for the following molecule: `O=C(CCl)Nc1cc2c(cc1Cl)OCCO2`
Return: 0.0711

Enquiry: Provide log2 ratio of Biotin-Ahx-Ub-VS probe labelling value for the following molecule: `CNC(=O)Cn1cc(NC(=O)CCl)cn1`
Return: 0.000623

Enquiry: Provide log2 ratio of Biotin-Ahx-Ub-VS probe labelling value for the following molecule: `Cc1ccccc1OCC(=O)N1CCN(C(=O)CCl)CC1`
Return: -0.329

Enquiry: Provide log2 ratio of Biotin-Ahx-Ub-VS probe labelling value for the following molecule: `CN(C)C(=O)c1ccc(CNC(=O)CCl)cc1`
Return: 0.181

Enquiry: Provide log2 ratio of Biotin-Ahx-Ub-VS probe labelling value for the following molecule: O=C(CCl)NC(Cn1ccccc1=O)c1ccccc1 (stereo not drawn)
Return: 0.258

Enquiry: Provide log2 ratio of Biotin-Ahx-Ub-VS probe labelling value for the following molecule: `O=C(CCl)NCCc1ccc(F)cc1`
Return: 0.235

Enquiry: Provide log2 ratio of Biotin-Ahx-Ub-VS probe labelling value for the following molecule: `Cc1noc(N2CCN(C(=O)CCl)CC2)n1.Cl`
Return: -0.0466

Enquiry: Provide log2 ratio of Biotin-Ahx-Ub-VS probe labelling value for the following molecule: `Cc1nc(CC2CCN(C(=O)CCl)CC2)no1`
Return: -0.332

Enquiry: Provide log2 ratio of Biotin-Ahx-Ub-VS probe labelling value for the following molecule: O=C(CCl)N1CCC(O)(Cc2ccc(F)cc2)C1 (stereo not drawn)
Return: -0.0773

Enquiry: Provide log2 ratio of Biotin-Ahx-Ub-VS probe labelling value for the following molecule: `Cl.Cn1nc2c(c1CNC(=O)CCl)CCCC2`
Return: 0.117

Enquiry: Provide log2 ratio of Biotin-Ahx-Ub-VS probe labelling value for the following molecule: O=C(CCl)N1CCC(C(O)c2ccc(F)cc2)CC1 (stereo not drawn)
Return: 0.252

Enquiry: Provide log2 ratio of Biotin-Ahx-Ub-VS probe labelling value for the following molecule: `O=C(CCl)Nc1ccc(N2CCCC2=O)cc1`
Return: 0.132

Enquiry: Provide log2 ratio of Biotin-Ahx-Ub-VS probe labelling value for the following molecule: `Cl.O=C(CCl)N1CCn2cncc2C1`
Return: -0.137

Enquiry: Provide log2 ratio of Biotin-Ahx-Ub-VS probe labelling value for the following molecule: `O=C(CCl)N1CCC(OCc2ccccc2F)CC1`
Return: 0.155

Enquiry: Provide log2 ratio of Biotin-Ahx-Ub-VS probe labelling value for the following molecule: Cc1ccc(N(C(=O)CCl)C2C=CS(=O)(=O)C2)cc1 (stereo not drawn)
Return: -0.055

Enquiry: Provide log2 ratio of Biotin-Ahx-Ub-VS probe labelling value for the following molecule: `Cl.O=C(CCl)N1CC(c2ccc(Br)cn2)C1`
Return: -0.129

Enquiry: Provide log2 ratio of Biotin-Ahx-Ub-VS probe labelling value for the following molecule: `Cc1cc(C(=O)NC2CCN(C(=O)CCl)CC2)no1`
Return: -0.048

Enquiry: Provide log2 ratio of Biotin-Ahx-Ub-VS probe labelling value for the following molecule: `C[C@H]1CN(C(=O)CCl)CCN1C(=O)c1cnn(C)c1.Cl`
Return: -0.0724

Enquiry: Provide log2 ratio of Biotin-Ahx-Ub-VS probe labelling value for the following molecule: NC(=O)C1CCCN(C(=O)CCl)C1 (stereo not drawn)
Return: 0.15

Enquiry: Provide log2 ratio of Biotin-Ahx-Ub-VS probe labelling value for the following molecule: `Cc1c(NC(=O)CCl)c(=O)n(-c2ccccc2)n1C`
Return: 0.0574

Enquiry: Provide log2 ratio of Biotin-Ahx-Ub-VS probe labelling value for the following molecule: `O=C(CCl)N1CCC(C(=O)N2CCCCCC2)CC1`
Return: -0.142

Enquiry: Provide log2 ratio of Biotin-Ahx-Ub-VS probe labelling value for the following molecule: O=C(CCl)N1CCOCCC1c1ccccc1 (stereo not drawn)
Return: -0.0581

Enquiry: Provide log2 ratio of Biotin-Ahx-Ub-VS probe labelling value for the following molecule: COCC1C=CCCN1C(=O)CCl (stereo not drawn)
Return: 0.0708

Enquiry: Provide log2 ratio of Biotin-Ahx-Ub-VS probe labelling value for the following molecule: CC(NC(=O)CCl)c1ccc2[nH]ncc2c1 (stereo not drawn)
Return: -0.239

Enquiry: Provide log2 ratio of Biotin-Ahx-Ub-VS probe labelling value for the following molecule: `Cl.O=C(CCl)NC1(c2ncccn2)CCC1`
Return: 0.267

Enquiry: Provide log2 ratio of Biotin-Ahx-Ub-VS probe labelling value for the following molecule: O=C(CCl)N1CCc2nc[nH]c2C1c1ccc(Cl)cc1 (stereo not drawn)
Return: -0.363

Enquiry: Provide log2 ratio of Biotin-Ahx-Ub-VS probe labelling value for the following molecule: O=C(CCl)N1CCC(c2ccn[nH]2)C1 (stereo not drawn)
Return: -0.0632

Enquiry: Provide log2 ratio of Biotin-Ahx-Ub-VS probe labelling value for the following molecule: `Cl.O=C(CN1CCN(C(=O)CCl)CC1)Nc1ccc(F)cc1`
Return: 0.0462

* * *

Measurement Target: USP42 (UniProt Q9H9J4)
Sequence (Q9H9J4 whole entry, the tested form may be a part): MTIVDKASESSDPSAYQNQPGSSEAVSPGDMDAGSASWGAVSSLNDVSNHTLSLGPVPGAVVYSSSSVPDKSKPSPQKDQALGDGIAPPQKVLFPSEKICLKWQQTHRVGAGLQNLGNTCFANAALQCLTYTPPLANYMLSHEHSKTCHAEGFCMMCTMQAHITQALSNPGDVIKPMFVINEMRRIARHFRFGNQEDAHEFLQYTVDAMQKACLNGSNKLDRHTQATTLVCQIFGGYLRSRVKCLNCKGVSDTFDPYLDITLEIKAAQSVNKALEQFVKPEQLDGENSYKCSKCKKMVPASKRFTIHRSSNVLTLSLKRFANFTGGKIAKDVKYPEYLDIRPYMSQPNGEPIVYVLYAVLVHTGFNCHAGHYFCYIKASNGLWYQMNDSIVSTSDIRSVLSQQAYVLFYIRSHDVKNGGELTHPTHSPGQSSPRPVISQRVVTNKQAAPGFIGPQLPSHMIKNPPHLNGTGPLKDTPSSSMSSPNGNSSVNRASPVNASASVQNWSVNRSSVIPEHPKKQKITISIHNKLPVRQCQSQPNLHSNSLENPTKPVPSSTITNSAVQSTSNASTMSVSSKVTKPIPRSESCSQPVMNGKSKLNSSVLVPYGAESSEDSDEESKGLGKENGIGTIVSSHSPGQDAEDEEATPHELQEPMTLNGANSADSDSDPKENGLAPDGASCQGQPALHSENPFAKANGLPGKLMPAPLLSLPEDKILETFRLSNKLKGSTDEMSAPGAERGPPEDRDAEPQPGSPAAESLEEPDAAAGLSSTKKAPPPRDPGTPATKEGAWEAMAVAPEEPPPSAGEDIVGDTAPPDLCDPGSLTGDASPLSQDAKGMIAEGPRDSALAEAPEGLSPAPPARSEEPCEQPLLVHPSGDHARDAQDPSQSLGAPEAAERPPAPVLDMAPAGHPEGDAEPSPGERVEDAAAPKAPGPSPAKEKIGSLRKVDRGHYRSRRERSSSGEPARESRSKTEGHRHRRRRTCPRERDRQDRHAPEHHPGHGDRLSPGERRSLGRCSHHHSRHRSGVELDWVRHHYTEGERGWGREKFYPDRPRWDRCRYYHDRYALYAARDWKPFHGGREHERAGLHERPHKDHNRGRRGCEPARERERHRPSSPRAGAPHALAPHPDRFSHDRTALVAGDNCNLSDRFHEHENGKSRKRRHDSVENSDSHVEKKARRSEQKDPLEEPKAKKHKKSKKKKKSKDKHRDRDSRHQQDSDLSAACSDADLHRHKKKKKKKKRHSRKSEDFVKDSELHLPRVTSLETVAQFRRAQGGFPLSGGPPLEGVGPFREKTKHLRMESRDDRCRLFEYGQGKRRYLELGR
Method: log2 ratio of Biotin-Ahx-Ub-VS probe labelling (fragment/DMSO); higher = less target engagement (more negative = stronger competition), active = hit call of the paper (q ≤ 0.05, log2 ratio ≤ -1)
Particulars: compound concentration: 200 uM; treatment time: 3 h
Outcome Measure: log2 ratio of Biotin-Ahx-Ub-VS probe labelling
The reply should be a number, written without any unit.

Enquiry: Provide log2 ratio of Biotin-Ahx-Ub-VS probe labelling value for the following molecule: CN1c2ccccc2C(NC(=O)CCl)CS1(=O)=O (centres undefined)
Return: -0.0975

Enquiry: Provide log2 ratio of Biotin-Ahx-Ub-VS probe labelling value for the following molecule: `O=C(CCl)NCc1cccc(N2CCCC2=O)c1`
Return: -0.175

Enquiry: Provide log2 ratio of Biotin-Ahx-Ub-VS probe labelling value for the following molecule: `O=C(CCl)N1CCC[C@@H]1c1ccon1`
Return: 0.00575

Enquiry: Provide log2 ratio of Biotin-Ahx-Ub-VS probe labelling value for the following molecule: `Cc1cccc2nc(CCNC(=O)CCl)cn12.Cl`
Return: -0.108

Enquiry: Provide log2 ratio of Biotin-Ahx-Ub-VS probe labelling value for the following molecule: CN(CCC(O)c1ccc(Br)cc1)C(=O)CCl (centres undefined)
Return: 0.556

Enquiry: Provide log2 ratio of Biotin-Ahx-Ub-VS probe labelling value for the following molecule: O=C(CCl)N1CCCC2CCCCC21 (centres undefined)
Return: 0.484

Enquiry: Provide log2 ratio of Biotin-Ahx-Ub-VS probe labelling value for the following molecule: `Cc1nc(CN2CCCN(C(=O)CCl)CC2)no1.Cl`
Return: 0.102

Enquiry: Provide log2 ratio of Biotin-Ahx-Ub-VS probe labelling value for the following molecule: `N#Cc1ccc(CNC(=O)CCl)cc1`
Return: 0.0438

Enquiry: Provide log2 ratio of Biotin-Ahx-Ub-VS probe labelling value for the following molecule: `Cc1cccn2cc(CCNC(=O)CCl)nc12.Cl`
Return: 0.274

Enquiry: Provide log2 ratio of Biotin-Ahx-Ub-VS probe labelling value for the following molecule: NC(=O)C1CCCN(C(=O)CCl)C1 (centres undefined)
Return: -0.105

Enquiry: Provide log2 ratio of Biotin-Ahx-Ub-VS probe labelling value for the following molecule: `O=C(CCl)N1CCC(C(=O)N2CCCCCC2)CC1`
Return: 0.671

Enquiry: Provide log2 ratio of Biotin-Ahx-Ub-VS probe labelling value for the following molecule: NC(=O)C1CCCCN1C(=O)CCl (centres undefined)
Return: -0.0547

Enquiry: Provide log2 ratio of Biotin-Ahx-Ub-VS probe labelling value for the following molecule: Cc1ccc(CC(NC(=O)CCl)c2ccccn2)cc1.Cl (centres undefined)
Return: -0.109

Enquiry: Provide log2 ratio of Biotin-Ahx-Ub-VS probe labelling value for the following molecule: CCN(C(=O)CCl)C1CCS(=O)(=O)C1 (centres undefined)
Return: 0.372

* * *

Measurement Target: USP7 (UniProt Q93009)
Sequence (Q93009 whole entry, looked up, the tested form may be a part): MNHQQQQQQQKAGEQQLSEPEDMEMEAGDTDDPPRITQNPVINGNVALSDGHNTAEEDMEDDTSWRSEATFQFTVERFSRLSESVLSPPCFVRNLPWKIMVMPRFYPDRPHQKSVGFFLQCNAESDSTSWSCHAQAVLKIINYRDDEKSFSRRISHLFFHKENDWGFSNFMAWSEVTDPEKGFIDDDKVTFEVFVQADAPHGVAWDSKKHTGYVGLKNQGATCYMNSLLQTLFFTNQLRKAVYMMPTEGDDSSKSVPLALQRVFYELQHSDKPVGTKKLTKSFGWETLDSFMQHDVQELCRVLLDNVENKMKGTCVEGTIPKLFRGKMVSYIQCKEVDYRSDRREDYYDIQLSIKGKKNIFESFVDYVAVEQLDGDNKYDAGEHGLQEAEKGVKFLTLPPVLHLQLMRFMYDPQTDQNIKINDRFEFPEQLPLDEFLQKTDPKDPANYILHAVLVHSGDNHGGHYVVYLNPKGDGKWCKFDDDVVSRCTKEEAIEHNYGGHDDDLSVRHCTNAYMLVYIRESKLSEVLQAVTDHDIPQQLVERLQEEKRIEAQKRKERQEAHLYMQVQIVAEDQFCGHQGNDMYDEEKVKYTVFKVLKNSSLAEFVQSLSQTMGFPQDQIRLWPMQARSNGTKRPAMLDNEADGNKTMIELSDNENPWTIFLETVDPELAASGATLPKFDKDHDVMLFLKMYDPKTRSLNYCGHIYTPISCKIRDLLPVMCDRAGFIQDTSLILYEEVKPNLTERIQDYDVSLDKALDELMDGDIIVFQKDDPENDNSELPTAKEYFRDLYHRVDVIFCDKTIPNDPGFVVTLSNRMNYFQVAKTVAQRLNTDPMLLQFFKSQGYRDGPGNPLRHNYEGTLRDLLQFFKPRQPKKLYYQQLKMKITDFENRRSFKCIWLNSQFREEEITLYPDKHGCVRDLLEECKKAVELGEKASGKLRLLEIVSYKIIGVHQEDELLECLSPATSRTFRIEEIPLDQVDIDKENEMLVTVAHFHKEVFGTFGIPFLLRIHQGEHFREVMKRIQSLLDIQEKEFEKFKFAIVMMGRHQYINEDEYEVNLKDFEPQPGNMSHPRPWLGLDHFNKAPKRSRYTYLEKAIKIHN
Method: log2 ratio of Biotin-Ahx-Ub-VS probe labelling (fragment/DMSO); higher = less target engagement (more negative = stronger competition), active = hit call of the paper (q ≤ 0.05, log2 ratio ≤ -1)
Particulars: compound concentration: 200 uM; treatment time: 3 h
Response enum: t = active, f = inactive

Enquiry: How did this test come out for O=C(CCl)N1CCCCCC1c1ncon1 (configuration not stated) ?
Return: f

Enquiry: How did this test come out for O=C(CCl)N1CCC(O)(Cc2ccc(F)cc2)C1 (configuration not stated) ?
Return: f

Enquiry: How did this test come out for `O=C(CCl)N1CCC[C@@H]1c1ccon1` ?
Return: f

Enquiry: How did this test come out for Cl.O=C(CCl)N1CCCC(c2ncc[nH]2)C1 (configuration not stated) ?
Return: f

Enquiry: How did this test come out for `O=C(CCl)N1c2ccccc2NC(=O)C12CCCC2` ?
Return: t

Enquiry: How did this test come out for `Cc1nc(CC2CCN(C(=O)CCl)CC2)no1` ?
Return: f

Enquiry: How did this test come out for `Cc1cccc(NC(=O)CCl)c1C` ?
Return: f
